Cited source: PubChem BioAssay

- target-entity: Calmodulin-1 (Homo sapiens)
- assay-explanation: CALM1 binders on microarrays, EGTA buffer, profiling panel, biochemical, small-molecule microarray, Cy5-labelled CALM1 (AID 1111);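 further: labelled calmodulin applied in Tris saline Tween buffer holding calcium plus EGTA and DTT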
- experimental-parameters: Cy5-CALM1 binding fluorescence, higher = more signal
Tick 1 if composite z-score is -0.2 or greater. Tick 0 if composite z-score is less than -0.2.

The examples below pair each entry with its known result.
>  <compound>
COc1ccc([Si](C)(C)[C@H]2[C@H](CCO)O[C@@]3(C(=O)N(Cc4ccc(N5CCOC5=O)cc4)c4ccccc43)[C@@H]2C)cc1

>  <label-class>
1

$$$$
>  <compound>
CCCCC(=C=CC[C@@H](O)c1cccc(OCCO)c1)CCO

>  <label-class>
0

$$$$
>  <compound>
COc1ccc([Si](C)(C)[C@H]2[C@H](CCn3cc([C@H](O)c4ccccc4)nn3)O[C@@]3(C(=O)N(c4ccccc4)c4ccccc43)[C@@H]2C)cc1

>  <label-class>
1

$$$$
>  <compound>
C=CCC(OC(C)=O)[C@@H]1[C@@H](N(Cc2ccc(-c3cccc(C(F)(F)F)c3)o2)C(=O)Cc2ccc(F)cc2)c2cc(OCCCO)ccc2N1C(=O)c1ccc2ccccc2c1 (some centres undefined)

>  <label-class>
0

$$$$
>  <compound>
CO[C@H]1O[C@H](CO)[C@@H](OC(=O)Nc2ccc3c(c2)OCO3)[C@@H]2OC(=O)[C@@H](Cc3ccccc3)C/C=C/C[C@H](Cc3ccccc3)C(=O)O[C@@H]12

>  <label-class>
1

$$$$
>  <compound>
CN(C)CCCNC(=O)[C@@]1(Cc2ccccc2I)c2ccccc2C(=O)N(Cc2ccccc2)[C@H]1c1ccc(CO)cc1

>  <label-class>
0

$$$$

Please indicate if the recorded composite z-score for "CC(=O)NCCCC[C@@H]1NC(=O)[C@@H]2C[C@H](C(=O)NCCCCCC[N+](C)(C)C)[C@H](c3ccc(O)cc3)N2C1=O" meets or exceeds -0.2.
0

* * *

- assay-explanation: P. aeruginosa biofilm formation inhibitors, primary screen, strain PAO1, LB-PBS medium, absorbance 600 nm (AID 1176); further: test concentration not given here
- experimental-parameters: P. aeruginosa PAO1 growth/biofilm, A600, 12 h; higher = more signal
Activity calls are given as the source filed them. No rule for the calls is given here.
z-score values for the compounds below.

The following compounds have reported results that may help.
>  <compound>
COC(=O)[C@]1(CO)N=C(c2ccc(OCCCO)cc2)O[C@@H]1c1ccccc1CN=[N+]=[N-]

>  <z-score>
-0.677 (inactive)

$$$$
>  <compound>
C=CC[C@@]1(C(=O)N(C)C)N=C(c2ccc(OCCCO)cc2)O[C@@H]1c1ccccc1

>  <z-score>
0.95 (inactive)

$$$$
>  <compound>
CC(C)c1ccc(NN2C(C(O)C(C)C)C=CC3C(=O)N(c4ccccc4)C(=O)C32)cc1 (stereo not given)

>  <z-score>
0.711 (inactive)

$$$$
>  <compound>
C=C(COC)/C(=C/C[C@H](OC(=O)c1ccncc1)c1cccc(OCCO)c1)c1cnc2ccccc2c1

>  <z-score>
1.14 (inactive)

$$$$

Here is another compound to look at.
Need z-score, item "CCC[C@@H]1C=C(C(=O)OCC)[C@H](c2ccccc2)N1S(=O)(=O)c1ccc(C)cc1"
0.0362 (inactive)

* * *

- assay-explanation: MM1S myeloma cell viability, profiling panel, resazurin fluorescence, basal, 24 h, PK04 Diversity Set (AID 1174);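 further: MM1S multiple myeloma cell line; test concentration not given here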
- experimental-parameters: higher = more signal, called active from +8 up or from −8 down
Threshold check on z-score: at or above -2 gives fulfilled, strictly below gives not fulfilled.

Examples from the recorded data:
>  <compound>
C=CC[C@@]12N=C(c3ccc(OCCCO)cc3)O[C@@H]1c1ccccc1N(Cc1ccccc1)C2=O

>  <label-class>
not fulfilled

$$$$
>  <compound>
O=C1O[C@H](c2ccccc2)[C@H](c2ccccc2)N2[C@H]1[C@@H](C(=O)N1CCN(c3ncccn3)CC1)[C@]1(C(=O)Nc3ccccc31)[C@H]2c1ccc(O)cc1

>  <label-class>
fulfilled

$$$$
>  <compound>
NCCCC[C@@H]1NC(=O)[C@H]2C[C@@H](C(=O)NCc3ccc(F)cc3)[C@@H](c3ccc(O)cc3)N2C1=O

>  <label-class>
fulfilled

$$$$
>  <compound>
CC(C)C[C@H]1NC(=O)[C@H](Cc2ccccc2)NC(=O)[C@@]23C(=O)N[C@@H](Cc4ccccc4)C2[C@H](C)[C@@]2(C)O[C@H]2C3/C=C/C/C=C\CNC1=O (some centres not stated)

>  <label-class>
fulfilled

$$$$

State whether the measured z-score reaches -2, counting equality as reaching it, for "C=C(CC1([C@@H](NP(=O)(c2ccccc2)c2ccccc2)[C@H]2C[C@@H]2CCN(C(=O)OCC)S(=O)(=O)c2ccc(C)cc2)CC1)c1ccccc1"
fulfilled

Item: "Cc1c(NC(=O)/C(C#N)=C/c2ccc(Cl)cc2)c(=O)n(-c2ccccc2)n1C"
fulfilled

Same for "CCOC(=O)C1=C(C(=O)OCC)N(S(=O)(=O)CC[Si](C)(C)C)[C@H](c2ccccc2)CC1"
not fulfilled

* * *

- assay-explanation: HepG2 liver cancer cell viability effects, profiling panel, resazurin fluorescence, 24 h, PK04 Diversity Set (AID 1172); further: test concentration not given here
- experimental-parameters: higher = more signal
property-label: z-score
Write no unit; give the number alone.

Worked examples follow.
>  <compound>
CCC(CC)C(O)C1C=CC2C(=O)N(C)C(=O)C2N1N1CCCCC1 (configuration not stated)

>  <z-score>
-0.735

$$$$
>  <compound>
COc1ccc(CCNC(=O)[C@@]2(Sc3ccc(C)cc3)CC(=O)N(Cc3cc(C(F)(F)F)cc(C(F)(F)F)c3)[C@@H]2c2ccc(CO)cc2)cc1

>  <z-score>
-0.392

$$$$
>  <compound>
CC[C@H](C)C(=O)O[C@H]1CC[C@]2(C)C3=C(CCC2C1(C)C)[C@]1(C)CC[C@H]([C@H](C)CCCC(C)C)[C@@]1(C)CC3 (some centres not stated)

>  <z-score>
1.06

$$$$

Item "COCCOC(=O)N1C(=O)[C@@]2(c3cc(C#Cc4ccc(OC)cc4)ccc31)[C@H](C(=O)N1CCCCCCC1)[C@H]1C(=O)O[C@H](c3ccccc3)[C@H](c3ccccc3)N1[C@@H]2c1ccccc1OCCO" has what recorded z-score?
-0.107

Also, O=C1NC(=O)C2C1C=CC(C(O)c1cccc(O)c1)N2Nc1ccc(Cl)cc1Cl (configuration not stated) please.
-1.79

Subsequent entry: "CCOC(=O)C1=CC[C@@H](c2ccc(F)cc2)N(S(=O)(=O)c2ccc(C)cc2)[C@H]1c1ccc([N+](=O)[O-])cc1"
1.09

Would you mind doing "COc1ccc([Si](C)(C)[C@H]2[C@H](CC(=O)N3Cc4ccccc4C[C@H]3CO)O[C@@]3(C(=O)N(Cc4cccc(N5C(=O)c6cccc7cccc5c67)c4)c4ccccc43)[C@@H]2C)cc1" as well?
-0.539

* * *

- assay-explanation: adipocyte viability effects, profiling panel, cell-based, 3T3-L1 adipocytes, calcein-AM fluorescence, 48 h, basal (AID 1163); further: test concentration not given here
- experimental-parameters: 3T3-L1 adipocytes viability, higher = more signal
Output y for records whose z-score is lower than 0.6, n for records at or above 0.6.

hey, is z-score for CCN(CC)c1ccc(N2CC=CC34O[C@@H]5C=CCOC(=O)[C@@H]5[C@H]3C(=O)N(CCCO)[C@@H]4C2=O)cc1 (stereo partly specified) lower than 0.6 or not?
n

Entry "C#CCN=C(N)N" please
y

What do you get for "CCC[C@@H]1C=C(C(=O)OCC)[C@H](c2ccccc2)N1S(=O)(=O)c1ccc(C)cc1" ?
y

Again, but for "C=C(COC)/C(=C/C[C@H](OC(=O)c1ccncc1)c1cccc(OCCO)c1)c1cnc2ccccc2c1"
y

For O=C1C2C=CC(C(O)c3ccc([N+](=O)[O-])cc3)N(Nc3ccccc3)C2C(=O)N1c1ccccc1 (stereo unspecified) then?
y

Would you mind doing CCCCCCCCCCC(O)C1C=CC2C(=O)N(C)C(=O)C2N1N1CCCCC1 (stereo unspecified) as well?
y

* * *

- target-entity: Calmodulin-1 (Homo sapiens)
- assay-explanation: CALM1 binders on microarrays, EGTA buffer, profiling panel, biochemical, small-molecule microarray, Cy5-labelled CALM1 (AID 1111);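 further: labelled calmodulin applied in Tris saline Tween buffer holding calcium plus EGTA and DTT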
- experimental-parameters: Cy5-CALM1 binding fluorescence, higher = more signal
Hi all, reminder that labels come from composite z-score, split as low value = under 0.07, medium value = from 0.07 up to 1, high value = 1 and over

>  <molecule>
O=C1C2C=CC(C(O)C(c3ccccc3)c3ccccc3)N(Nc3ccccc3)C2C(=O)N1c1ccccc1 (stereo not drawn)

>  <label-class>
medium value

$$$$
>  <molecule>
C/C=C/CN(C(=O)C#Cc1ccccc1)[C@H](CO[Si](C)(C)C(C)(C)C)c1ccccc1

>  <label-class>
low value

$$$$
>  <molecule>
COCC(=C=CC[C@@H](O)c1cccc(OCCO)c1)C[C@@H](O)COCc1ccccc1

>  <label-class>
high value

$$$$
>  <molecule>
COc1ccc(C#Cc2ccc3c(c2)[C@]2(C(=O)N3)[C@H](C(=O)Nc3nc4ccccc4s3)[C@H]3C(=O)O[C@H](c4ccccc4)[C@H](c4ccccc4)N3[C@@H]2c2ccc(OCCO)cc2)cc1

>  <label-class>
high value

$$$$
>  <molecule>
CC(C)(C)OC(=O)CC[C@]1(C(N)=O)N=C(c2ccc(OCCCO)cc2)O[C@H]1c1ccccc1CN=[N+]=[N-]

>  <label-class>
high value

$$$$
>  <molecule>
O=C1C2C=CC(C(O)c3cccc(O)c3)N(Nc3ccccc3F)C2C(=O)N1c1ccccc1 (stereo not drawn)

>  <label-class>
low value

$$$$

# bin lookup: classify "COC(=O)[C@@]1(CCC(=O)OC(C)(C)C)N=C(c2ccc(OCCCO)cc2)O[C@H]1c1ccccc1CN=[N+]=[N-]" by its composite z-score
medium value
